TARGET_SYSTEM: GIPC2, Q8TF65
Sequence (Q8TF65 112-203): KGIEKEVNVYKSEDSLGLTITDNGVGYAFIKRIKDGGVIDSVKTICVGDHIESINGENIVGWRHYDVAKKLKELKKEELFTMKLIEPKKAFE
TEST: holdup assay
Set-up: key: below the threshold = too weak to quantify, mostly under pKd 3.1 to 4
CONDITION_LABEL: plain residues with an end cap or a label only (N-terminal biotin on a linker: ado-ado)
READOUT: pKd

| BINDER | pKd |
| --- | --- |
| RQKEVRESKC [SCN8A, Q9UQD0] | 4.05 |
| EPQYQPGENL [SRC, P12931] | below the threshold |
| QKAPTKEFYA [SDC2, P34741] | below the threshold |
| RSSGGDDFWF [KCNV1, Q6PIU1] | below the threshold |
| DRIQSCLSDA [SBF1, O95248] | below the threshold |
| QSYPSKHDYV [CLDN18, P56856] | below the threshold |
| ARESQKVSHV [FAM110B, Q8TC76] | below the threshold |

Now for another entry.
## Input # query: pKd of entry DFLSTFHIRI [CIB2, O75838]
## Output below the threshold
